# credit: patent US20210032365A1

# ASSAY_SYSTEM: T1, human C1s (human, UniProt P09871 16-688)
# T1 construct: Analyte in the Biacore assays; also called hC1s; serum-derived human C1s (CompTech)
# T1 sequence: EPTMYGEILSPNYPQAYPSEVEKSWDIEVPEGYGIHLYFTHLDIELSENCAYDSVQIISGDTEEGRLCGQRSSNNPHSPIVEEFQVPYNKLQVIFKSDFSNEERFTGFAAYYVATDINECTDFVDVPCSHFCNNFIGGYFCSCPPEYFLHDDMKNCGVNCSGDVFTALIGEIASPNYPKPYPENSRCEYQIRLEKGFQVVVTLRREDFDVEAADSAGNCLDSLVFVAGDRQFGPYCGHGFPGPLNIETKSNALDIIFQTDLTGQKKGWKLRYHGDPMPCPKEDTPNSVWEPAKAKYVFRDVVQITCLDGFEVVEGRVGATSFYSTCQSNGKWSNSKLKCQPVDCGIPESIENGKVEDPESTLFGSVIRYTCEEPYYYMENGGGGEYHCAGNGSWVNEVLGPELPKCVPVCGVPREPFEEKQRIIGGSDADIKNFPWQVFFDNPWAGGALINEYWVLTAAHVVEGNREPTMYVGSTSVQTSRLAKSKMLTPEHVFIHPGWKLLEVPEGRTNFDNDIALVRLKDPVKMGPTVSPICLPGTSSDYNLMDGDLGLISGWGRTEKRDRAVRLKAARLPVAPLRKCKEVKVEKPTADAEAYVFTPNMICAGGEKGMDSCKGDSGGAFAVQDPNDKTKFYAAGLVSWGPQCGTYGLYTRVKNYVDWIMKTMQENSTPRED
# EXPERIMENT: SPR (Biacore T200, 37C), Ab captured on protein A/G; pH 5.8, 1.2 mM Ca
Attribute: kon
ENDPOINT: kon (M⁻¹ s⁻¹)

BINDER	OBS_VALUE
C1_IPN92H0091-SG4GK/IPN93L0024-SK1 (antibody, human IgG4 S228P, kappa, name in Kabat numbering, V domains shown, Substitutions from IPN009VH2, Kabat numbering; also called IPN92H0091/IPN93L0024) VH: EVMLVESGGGLVKPGGSLRLSCAASGFTFSNYAKSWVRQAPGKGLEWVATISSGGSHTYYLDSVKGRFTISRDNSKDTLYLQMNSLRAEDTALYYCARLFTGHAMDYWGQGTLVTVSS VL: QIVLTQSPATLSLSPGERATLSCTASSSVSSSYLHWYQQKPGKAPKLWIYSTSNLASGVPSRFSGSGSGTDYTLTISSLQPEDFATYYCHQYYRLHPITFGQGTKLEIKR	530000
C1_IPN92H0033-SG4GK/IPN93L0090-SK1 (antibody, human IgG4 S228P, kappa, name in Kabat numbering, V domains shown, VL substitutions from IPN009VK3, Kabat numbering; also called IPN92H0033/IPN93L0090) VH: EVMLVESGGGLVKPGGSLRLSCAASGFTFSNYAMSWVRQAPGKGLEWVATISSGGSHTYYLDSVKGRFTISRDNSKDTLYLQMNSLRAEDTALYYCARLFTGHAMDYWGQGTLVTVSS VL: QIVLTQSPATLSLSPGERATLSCTASSSVSSSKLHWYQQKPGKAPKLWIYSTSNLASGVPSRFSGSGSGTDYTLTISSLQPEDFATYYCHQYYRLHPITFGQGTKLEIKR	577000
C1_IPN92H0253-SG4GK/IPN93L0024-SK1 (antibody, human IgG4 S228P, kappa, name in Kabat numbering, V domains shown, Substitutions from IPN009VH2, Kabat numbering; also called IPN92H0253/IPN93L0024) VH: EVMLVESGGGLVKPGGSLRLSCAASGFTFSNYAMSWVRQAPGKGLEWVATISSGGSHTYYLDSVKGRFTISRDNSKDTLYLQMNSLRAEDTALYYCARLFTGHAMKYWGQGTLVTVSS VL: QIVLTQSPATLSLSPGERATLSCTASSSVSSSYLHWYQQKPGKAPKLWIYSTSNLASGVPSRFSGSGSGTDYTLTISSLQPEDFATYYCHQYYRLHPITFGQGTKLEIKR	471000
